- System: Aerobactin synthetase IucA (Klebsiella pneumoniae hvKP1)
- assayName: Biochemical IucA enzyme inhibition primary screen of the Spectrum library (AID 1346200);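 note: 100% = wells without compound and 0% = wells lacking enzyme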
- experimentalParameters: malachite green pyrophosphate, A620, at 8 µM, stronger effect = lower value
measuredEndpoint: activity remaining (%)
Numbers only, in %.

[[record]]
compound = "C[C@@H]1CC[C@@]23CCC4(C)[C@@](C=CC5[C@@]6(C)CCC(=O)C(C)(C)C6CC[C@]54C)(OC2=O)C3[C@H]1C (some centres undefined)"
measured = 112


Parameters: items (list). Returns: activity remaining for each item.
1. N[C@@H](Cc1cc(I)c(Oc2ccc(O)c(I)c2)c(I)c1)C(=O)O
2. COc1ccc(-c2cc(=O)c3c(O)cc(O[C@H]4O[C@H](CO[C@@H]5O[C@@H](C)[C@H](O)[C@@H](O)[C@H]5O)[C@@H](O)[C@H](O)[C@H]4O)cc3o2)cc1

*A*
125
101
